Reported Ki values, human dopamine D3 receptors (Homo sapiens).
I only need the number, in nM, no unit after it.

Ask: Look up Ki for this compound: CCCN1CC[C@@H](c2ccc(NS(=O)(=O)c3ccc4c(c3)CCC4)cc2)C1.Cl [Example 24, hydrochloride]
Reply: 1.2

Ask: Same question, CCCN1CC[C@@H](c2ccc(NS(=O)(=O)c3ccc(OC(C)C)cc3)cc2)C1.Cl [Example 23, hydrochloride] this time
Reply: 1.07

Ask: Repeat with "C[C@H](CF)c1ccc(S(=O)(=O)Nc2ccc([C@@H]3CCNC3)cc2)cc1"
Reply: 7.4

Ask: Could you do the same for CC(=O)O.COc1cc(C2CCNC2)ccc1NS(=O)(=O)c1ccc(C(C)C)cc1 (stereo not shown) [Example 135, acetate] , please?
Reply: 0.85

====

- TARGET_OR_TEST_SYSTEM: human dopamine D3 receptors (Homo sapiens, UniProt P35462)
- Sequence (P35462 whole entry): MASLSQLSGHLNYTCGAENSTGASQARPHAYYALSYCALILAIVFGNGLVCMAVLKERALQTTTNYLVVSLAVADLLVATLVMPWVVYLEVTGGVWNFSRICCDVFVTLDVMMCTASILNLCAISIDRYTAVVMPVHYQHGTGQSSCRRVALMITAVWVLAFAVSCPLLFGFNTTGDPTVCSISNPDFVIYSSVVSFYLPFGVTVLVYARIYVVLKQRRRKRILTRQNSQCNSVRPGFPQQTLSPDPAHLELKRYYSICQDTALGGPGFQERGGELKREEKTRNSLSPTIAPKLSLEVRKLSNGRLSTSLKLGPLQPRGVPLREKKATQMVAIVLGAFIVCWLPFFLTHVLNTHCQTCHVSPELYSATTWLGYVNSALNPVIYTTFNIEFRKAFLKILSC
Please go through the items and note down their pKi.
Please treat pKi as minus the base-10 logarithm of the molar concentration.

Ask: Looking for the measured pKi of "CCCN1CC(c2ccc(NS(=O)(=O)c3ccc(CCC(F)(F)F)cc3)cc2)C1" , can you help?
Reply: 7.67

Ask: Also CCCc1ccc(S(=O)(=O)Nc2ccc([C@@H]3CCN(CCC)C3)cc2)cc1.Cl [Example 30, hydrochloride] , if possible.
Reply: 9.55

Ask: Moving on to the next compound: CCCN1CC[C@@H](c2ccc(NS(=O)(=O)c3ccc(C(F)(F)F)cc3)cc2)C1.Cl [Example 8, hydrochloride]
Reply: 8.39

Ask: Moving on to the next compound: "CCCN1CC[C@@H](c2ccc(NS(=O)(=O)c3ccc(CC(F)(F)F)cc3)cc2)C1"
Reply: 8.92

Ask: Another: "C=CCN1CC[C@@H](c2ccc(NS(=O)(=O)c3ccc(CCCF)cc3)cc2)C1"
Reply: 9.38

Ask: Could you do the same for C=CCN1CCC(c2ccc(NS(=O)(=O)c3ccc(C(C)C)cc3)c(OC)c2)C1.Cl (centres unmarked) [Example 137, hydrochloride] , please?
Reply: 9.44

Ask: Another: "CCCN1CC[C@@H](c2ccc(NS(=O)(=O)c3ccc(CCC(F)(F)F)cc3)cc2)C1"
Reply: 9.04

Ask: Please answer likewise for CCCN1CC[C@@H](c2ccc(NS(=O)(=O)c3ccc(C(C)CC)cc3)cc2)C1.Cl (some centres unmarked) [Example 33, hydrochloride]
Reply: 9.77

====

- TARGET_OR_TEST_SYSTEM: human dopamine D2L receptors (long isoform) (Homo sapiens)
- Sequence (P14416 whole entry, canonical isoform): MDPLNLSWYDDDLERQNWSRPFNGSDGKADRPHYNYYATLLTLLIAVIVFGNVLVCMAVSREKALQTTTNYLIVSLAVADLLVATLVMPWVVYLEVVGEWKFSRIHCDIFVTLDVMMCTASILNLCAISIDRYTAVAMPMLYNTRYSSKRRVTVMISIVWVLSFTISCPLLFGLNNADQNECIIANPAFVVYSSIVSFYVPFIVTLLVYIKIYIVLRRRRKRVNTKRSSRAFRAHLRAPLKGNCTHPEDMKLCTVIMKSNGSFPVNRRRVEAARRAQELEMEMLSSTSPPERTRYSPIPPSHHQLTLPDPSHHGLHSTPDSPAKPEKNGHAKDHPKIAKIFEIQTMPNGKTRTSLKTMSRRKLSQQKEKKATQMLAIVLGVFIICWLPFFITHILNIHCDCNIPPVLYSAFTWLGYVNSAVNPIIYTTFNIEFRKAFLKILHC
- ASSAY_NOTES: Dopamine D2L receptor binding, displacement of [125I] iodospiperone
- CONDITION_CONTEXT: membranes of HEK-293 cells stably expressing human D2L; 0.01 nM [125I] iodospiperone; 25° C., 60 minutes; read-out: Ki(D2)*
READOUT_TYPE: pKi
Scale: pKi equals -log10([C]), with [C] in mol/L.

Ask: # query: pKi of entry C=CCN1CC[C@@H](c2ccc(NS(=O)(=O)c3ccc(OC(F)(F)F)cc3)cc2)C1 [Example 101]
Reply: 6.57

Ask: Repeat with CCCN1CC[C@@H](c2ccc(NS(=O)(=O)c3ccc(OC(F)(F)F)cc3)cc2)C1.Cl [Example 7, hydrochloride]
Reply: 6.67

Ask: Follow-up entry: CCCN1CC(c2ccc(NS(=O)(=O)c3ccc([C@H](C)CF)cc3)cc2)C1 [Example 60]
Reply: 5.11

Ask: Now try CCCN1CC[C@@H](c2ccc(NS(=O)(=O)c3ccc(N4CCC4)cc3)cc2)C1 [Example 75] .
Reply: 7.91

Ask: Then CCCN1CC[C@@H](c2ccc(NS(=O)(=O)c3ccc(N4CCC(F)(F)C4)cc3)cc2)C1 [Example 127] ?
Reply: 7.19

Ask: Lookup CCCN1CC[C@@H](c2ccc(NS(=O)(=O)c3ccc4c(c3)CCC4)cc2)C1.Cl [Example 24, hydrochloride]
Reply: 7.14

Ask: Likewise for CC(C)c1ccc(S(=O)(=O)Nc2ccc([C@@H]3CCN(CCF)C3)cc2)cc1 [Example 96] ?
Reply: 7.24

Ask: Cool, now CC(C)c1ccc(S(=O)(=O)Nc2ccc([C@@H]3CCN(C)C3)cc2)cc1 [Example 85]
Reply: 7.73

Cited source for all entries: patent US8470810B2
